I'd appreciate it if you could supply EC50 values for the items below.
# Test system: Wnt activity (Sp5-Luc reporter in SW480 cells)
# method-notes: Screening assay for Wnt activity: Sp5-Luc reporter gene assay in SW480 colon carcinoma cells
# Type: cell-based, human
# applied-conditions: Homo sapiens, 36 to 48 hours
Expressed in nM, but write only the number.

Prompt: Bench note: what EC50 did `Cc1cc(-c2ccc3[nH]nc(C(=O)Nc4ccc(OC5CCN(C)CC5)cc4)c3c2)sn1` show?
Completion: 1380

Prompt: Bench note: what EC50 did `O=C(Nc1ccc(OC(F)F)cc1)c1n[nH]c2cc(F)c(-c3cnn(C4CCNCC4)c3)cc12` show?
Completion: 376

Prompt: Bench note: what EC50 did `CN1CCC(Oc2ncc(NC(=O)c3n[nH]c4cc(F)c(-c5cnn(C)c5)cc34)cc2F)CC1` show?
Completion: 1150

Prompt: Bench note: what EC50 did `CN1CCC(Oc2ccc(NC(=O)c3n[nH]c4ccc(-c5cnn(C)c5)cc34)cc2)CC1` show?
Completion: 205

Prompt: Bench note: what EC50 did `CCn1cc(-c2ccc3[nH]nc(C(=O)NC4CCC(F)(F)CC4)c3c2)cn1` show?
Completion: 801

Prompt: Bench note: what EC50 did `CN1CCC(Oc2ccc(NC(=O)c3n[nH]c4cc(F)c(-c5cnn(C)c5)cc34)cc2)CC1` show?
Completion: 266

Prompt: Bench note: what EC50 did `O=C(Nc1ccc(OC(F)F)cc1)c1n[nH]c2ccc(-c3cnc4n3CCNC4)cc12` show?
Completion: 937

---

I'd appreciate it if you could supply pIC50 values for the items below.
# test-system: GSK3β kinase (Homo sapiens (Human), UniProt P49841)
# Sequence (P49841 whole entry): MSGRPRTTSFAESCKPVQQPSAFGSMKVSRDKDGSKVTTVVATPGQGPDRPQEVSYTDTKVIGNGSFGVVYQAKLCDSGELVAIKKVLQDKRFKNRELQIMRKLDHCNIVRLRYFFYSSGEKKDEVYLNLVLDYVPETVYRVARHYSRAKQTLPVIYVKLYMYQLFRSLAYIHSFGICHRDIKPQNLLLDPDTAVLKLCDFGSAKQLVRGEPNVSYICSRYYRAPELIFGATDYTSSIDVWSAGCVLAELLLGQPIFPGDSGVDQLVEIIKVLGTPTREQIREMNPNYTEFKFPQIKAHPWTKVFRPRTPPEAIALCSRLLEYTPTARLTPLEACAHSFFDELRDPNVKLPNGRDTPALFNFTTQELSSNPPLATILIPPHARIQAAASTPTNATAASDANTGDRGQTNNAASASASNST
# method-notes: GSK3β kinase assay (Ser/Thr 09 peptide Z-lyte FRET)
# Type: biochemical
# applied-conditions: read-out: EC50 (method: IC50)
Answer as the number alone; pIC50 is minus log10 of concentration in mol/L.

Prompt: Bench note: what pIC50 did `Cn1cc(-c2ccc3[nH]nc(C(=O)NCC(F)(F)CN4CCCC4)c3c2)cn1` show?
Completion: 7.85

Prompt: Bench note: what pIC50 did `CC(C)(F)CN1CCC(NC(=O)c2n[nH]c3ccc(-c4cnn(C5CC5)c4)cc23)CC1` show?
Completion: 6.16

Prompt: Bench note: what pIC50 did `O=C(Nc1ccc(OC(F)F)nc1)c1n[nH]c2ccc(-c3cnn(CCN4CCCC4)c3)cc12` show?
Completion: 6.18

Prompt: Bench note: what pIC50 did `CN1CCC(Oc2ccc(NC(=O)c3n[nH]c4ccc(-c5cnn(C)c5)cc34)cc2)CC1` show?
Completion: 7.42

---

# test-system: DYRK1A kinase (Homo sapiens (Human))
# method-notes: DYRK1A kinase assay (Ser/Thr 18 peptide Z-lyte FRET)
# Format: biochemical
# applied-conditions: read-out: EC50 (method: IC50)
Threshold-based label: IC50 under 6 nM gives true, IC50 not under 6 nM gives false.

Prompt: Lab note: IC50 threshold 6 nM. Does this compound come in strictly under it? CN1CCN(c2cccc(NC(=O)c3n[nH]c4cc(F)c(-c5cnn(C)c5)cc34)c2)CC1 [Compound 149]
Completion: true

Prompt: Lab note: IC50 threshold 6 nM. Does this compound come in strictly under it? CN1CCC(n2cc(-c3ccc4[nH]nc(C(=O)Nc5cncc(F)c5)c4c3)cn2)CC1 [Compound 125]
Completion: false

Prompt: Lab note: IC50 threshold 6 nM. Does this compound come in strictly under it? O=C(NC1CCC(F)(F)CC1)c1n[nH]c2ccc(-c3cnn(C4CC4)c3)cc12 [Compound 19]
Completion: false

Prompt: Lab note: IC50 threshold 6 nM. Does this compound come in strictly under it? CC(C)n1cc(-c2cc3c(C(=O)Nc4ccc(OC5CCN(C)CC5)cc4)n[nH]c3cc2F)cn1 [Compound 158]
Completion: false

Prompt: Lab note: IC50 threshold 6 nM. Does this compound come in strictly under it? Cc1nn(C)cc1-c1ccc2[nH]nc(C(=O)NC3CCC(F)(F)CC3)c2c1 [Compound 21]
Completion: false

Prompt: Lab note: IC50 threshold 6 nM. Does this compound come in strictly under it? Cn1cc(-c2cc(Cl)c3[nH]nc(C(=O)NC4CCC(F)(F)CC4)c3c2)cn1 [Compound 17]
Completion: false

Prompt: Lab note: IC50 threshold 6 nM. Does this compound come in strictly under it? O=C(Nc1ccc(OC(F)F)nc1)c1n[nH]c2ccc(-c3cnn(CCN4CCCC4)c3)cc12 [Compound 89]
Completion: false

Prompt: Lab note: IC50 threshold 6 nM. Does this compound come in strictly under it? O=C(Nc1ccc(F)cc1)c1n[nH]c2ccc(-c3cnn(C4CC4)c3)cc12 [Compound 46]
Completion: false

Prompt: Lab note: IC50 threshold 6 nM. Does this compound come in strictly under it? Cn1cc(-c2cc3c(C(=O)N[C@H]4CC[C@H](CN5CC(F)C5)CC4)n[nH]c3cc2F)cn1 [Compound 24]
Completion: true

Prompt: Lab note: IC50 threshold 6 nM. Does this compound come in strictly under it? Cn1cc(-c2cc(F)c3[nH]nc(C(=O)NCCC(F)(F)F)c3c2)cn1 [Compound 6]
Completion: false

Prompt: Lab note: IC50 threshold 6 nM. Does this compound come in strictly under it? Cn1cc(-c2cc3c(C(=O)Nc4ccc(CN5CCCC5)cc4)n[nH]c3cc2F)cn1 [Compound 69]
Completion: true

Prompt: Lab note: IC50 threshold 6 nM. Does this compound come in strictly under it? Cc1ncc(-c2ccc3[nH]nc(C(=O)N[C@@H](C(C)C)C(F)(F)F)c3c2)n1C [Compound 133]
Completion: false

Prompt: Lab note: IC50 threshold 6 nM. Does this compound come in strictly under it? CN1CCC(Oc2cc(NC(=O)c3n[nH]c4cc(F)c(-c5cnn(C)c5)cc34)ccn2)CC1 [Compound 156]
Completion: true

Prompt: Lab note: IC50 threshold 6 nM. Does this compound come in strictly under it? CNC(=O)c1ccc(NC(=O)c2n[nH]c3ccc(-c4cnn(C5CCN(C)CC5)c4)cc23)cn1 [Compound 128]
Completion: true

---

# test-system: GSK3β kinase (Homo sapiens (Human), UniProt P49841)
# method-notes: GSK3β kinase assay (Ser/Thr 09 peptide Z-lyte FRET)
# Assay type: biochemical
# applied-conditions: read-out: EC50 (method: IC50)
measure: pIC50
Answer as the number alone; pIC50 is minus log10 of concentration in mol/L.

Prompt: API: value(readout= pIC50, system= GSK3β kinase (Homo sapiens (Human), UniProt P49841), query= `Cc1ncc(-c2ccc3[nH]nc(C(=O)Nc4ccc(OC5CCN(C)CC5)cc4)c3c2)s1` )
Completion: 7.39

Prompt: API: value(readout= pIC50, system= GSK3β kinase (Homo sapiens (Human), UniProt P49841), query= `CN1CCN(c2cccc(NC(=O)c3n[nH]c4cc(F)c(-c5cnn(C)c5)cc34)c2)CC1` )
Completion: 7.31

Prompt: API: value(readout= pIC50, system= GSK3β kinase (Homo sapiens (Human), UniProt P49841), query= `Cn1cc(-c2cc3c(C(=O)Nc4ccc(CN5CC(F)C5)cc4)n[nH]c3cc2F)cn1` )
Completion: 7.46

Prompt: API: value(readout= pIC50, system= GSK3β kinase (Homo sapiens (Human), UniProt P49841), query= `C[C@H](NC(=O)c1n[nH]c2ccc(-c3cnn(C)c3)cc12)C(F)(F)F` )
Completion: 7.62

Prompt: API: value(readout= pIC50, system= GSK3β kinase (Homo sapiens (Human), UniProt P49841), query= `CN1CCN(c2ccc(NC(=O)c3n[nH]c4cc(F)c(-c5cnn(C)c5)cc34)cc2)CC1` )
Completion: 7.19

Prompt: API: value(readout= pIC50, system= GSK3β kinase (Homo sapiens (Human), UniProt P49841), query= `Cc1ncc(-c2ccc3[nH]nc(C(=O)N[C@@H]4CCCC[C@H]4F)c3c2)n1C` )
Completion: 7.62

Prompt: API: value(readout= pIC50, system= GSK3β kinase (Homo sapiens (Human), UniProt P49841), query= `O=C(Nc1ccc(N2CCCC2)nc1)c1n[nH]c2ccc(-c3cnn(C4CC4)c3)cc12` )
Completion: 6.48

Prompt: API: value(readout= pIC50, system= GSK3β kinase (Homo sapiens (Human), UniProt P49841), query= `CN1CCC(Oc2cc(NC(=O)c3n[nH]c4cc(F)c(-c5cnn(C)c5)cc34)ccn2)CC1` )
Completion: 7.28

Prompt: API: value(readout= pIC50, system= GSK3β kinase (Homo sapiens (Human), UniProt P49841), query= `CC(C)(C)n1cc(-c2ccc3[nH]nc(C(=O)N[C@H]4CC[C@H](CN5CC(F)C5)CC4)c3c2)cn1` )
Completion: 6.10

Prompt: API: value(readout= pIC50, system= GSK3β kinase (Homo sapiens (Human), UniProt P49841), query= `CN1CCC(c2ccc(NC(=O)c3n[nH]c4cc(F)c(-c5cnn(C)c5)cc34)cc2)CC1` )
Completion: 7.36

Prompt: API: value(readout= pIC50, system= GSK3β kinase (Homo sapiens (Human), UniProt P49841), query= `Cc1noc(C)c1-c1ccc2[nH]nc(C(=O)NC3CCN(CC(C)(C)F)CC3)c2c1` )
Completion: 5.98

Prompt: API: value(readout= pIC50, system= GSK3β kinase (Homo sapiens (Human), UniProt P49841), query= `O=C(Nc1ccc(OC(F)F)cc1)c1n[nH]c2ccc(-c3cnn(CC4CCNCC4)c3)cc12` )
Completion: 5.63

Prompt: API: value(readout= pIC50, system= GSK3β kinase (Homo sapiens (Human), UniProt P49841), query= `Cn1cc(-c2cc3c(C(=O)Nc4ccc(CN5CCC(F)CC5)cc4)n[nH]c3cc2F)cn1` )
Completion: 7.41

Prompt: API: value(readout= pIC50, system= GSK3β kinase (Homo sapiens (Human), UniProt P49841), query= `O=C(Nc1ccc(N2CCCC2)nc1)c1n[nH]c2ccc(-c3cnn(C4CCNCC4)c3)cc12` )
Completion: 6.37

Prompt: API: value(readout= pIC50, system= GSK3β kinase (Homo sapiens (Human), UniProt P49841), query= `Cn1cc(-c2cc3c(C(=O)Nc4ccc(CN5CCCC5)cc4)n[nH]c3cc2F)cn1` )
Completion: 7.70

Prompt: API: value(readout= pIC50, system= GSK3β kinase (Homo sapiens (Human), UniProt P49841), query= `Cc1cc(NC(=O)c2n[nH]c3ccc(-c4cnn(C5CCN(C)CC5)c4)cc23)sn1` )
Completion: 7.28
